System: Alopecurus myosuroides (ALOMY)
procedure_summary: Glasshouse assay for herbicidal activity (pre- and post-emergence), percentage phytotoxicity
Assay type: in vivo
experimental_setup: Alopecurus myosuroides, pre-emergence, 480 h, Rate 250 g/ha; pre-emergence; assessed visually 20 DAA; 100%=total damage, 0%=no damage; read-out: Pre-emergence herbicidal activity (percentage phytotoxicity) ALOMY PRE
reported_metric: pest or weed control at 250 g/ha

Consider the reported pest or weed control at 250 g/ha for these compounds:
{"compound": "Cc1cc(-n2cc(Cl)cn2)cc(C)c1C1C(=O)CC(CC(=O)NC2CC2)C1=O (centres unmarked)", "value_reported": "100%"}
{"compound": "CC#Cc1cc(C)c(C2C(=O)CC(CC(=O)NCC(C)(C)C)C2=O)c(C)c1 (centres unmarked)", "value_reported": "100%"}
{"compound": "Cc1cc(-c2ncc(Cl)cn2)cc(C)c1C1C(=O)CC(CC(=O)NCc2cccs2)C1=O (centres unmarked)", "value_reported": "0%"}
{"compound": "Cc1cc(-c2ncc(Cl)cc2F)cc(C)c1C1C(=O)CC(CC(=O)NCc2cccs2)C1=O (centres unmarked)", "value_reported": "70%"}
{"compound": "Cc1cc(-c2ccc(F)cc2)cc(C)c1C1C(=O)CC(CC(=O)NC(C)(C)C)C1=O (centres unmarked)", "value_reported": "100%"}
{"compound": "Cc1cc(-c2ncc(Cl)cc2F)cc(C)c1C1C(=O)CC(CC(=O)NC(C)(C)C)C1=O (centres unmarked)", "value_reported": "100%"}
{"compound": "Cc1cc(C)c(C2C(=O)CC(CC(=O)NCC3CCOCC3)C2=O)c(C)c1 (centres unmarked)", "value_reported": "50%"}

Turning to the following compound.
Input: Please tell me: pest or weed control at 250 g/ha of Cc1cc(C)c(C2C(=O)CC(CC(=O)NCc3cccs3)C2=O)c(C)c1 (centres unmarked) , system Alopecurus myosuroides (ALOMY)?
Output: 90%

The values you see were collected from patent US10206394B2.
